test system: NCI-H522 lung; assay: NCI tumour cell line growth inhibition, 48 h
Measured TGI of individual entries
Write the value in µM as a bare number.

Reference set, count: 3
compound	display-unit	TGI
N#Cc1ccc(N=Cc2c([O-])ccc3ccccc23)cc1.[C-]#[O+].[C-]#[O+].[Ir]	µM	2.45
COc1ccc(C(Cl)=C(c2ccc(OCCN(C)C)cc2)c2ccc(OCCN(C)C)cc2)cc1	µM	3.01
Cc1cc(NCCCCCCCNc2cc(C)nc3cc([N+](=O)[O-])ccc23)c2ccc([N+](=O)[O-])cc2n1	µM	2.78

Could you now look at the following compound, please?
input: Lab note: need TGI with NCI-H522 lung for entry BrCc1ccc(CBr)cc1 , please look it up.
output: 52.2

---

test system: EKVX NSCLC; test: NCI tumour cell line growth inhibition, 48 h
measured-attribute: TGI

Known TGI results, listed for orientation:
molecule	TGI
CSCCC(NC(=O)Cc1ccc(C(=O)c2ccccc2)cc1)C(=O)O (centres undefined)	> 100 µM
N#CN1CC[C@H](C(=O)Nc2ncc(-c3ccncc3)s2)C1	4.4 µM
COc1cc(-c2cc(-c3cc([N+](=O)[O-])c(/C=N/NC(=O)c4ccncc4)o3)ccc2OC)ccc1C	> 100 µM
CC1OC(OC2C(OC(=O)[C@@H]3CC(C)(C)C[C@H]4C5=CC[C@@H]6[C@@]7(C)C[C@H](O)[C@H](OC8OC(CO)C(O)C(O)C8O)[C@@](C)(CO)[C@@H]7[C@H](O)C[C@@]6(C)[C@]5(C)CC[C@@]34C)OCC(O)C2O)C(O)C(O)C1O (some centres undefined)	> 7.5 µM
C=CCOC(=O)C1C2OC3(C(C(=O)OC)=C2C(=O)OC)c2ccccc2CCC13 (centres undefined)	> 10 µM

input: If you can, please state the reported TGI value of CC(C)CN=C(N)N=C(N)N .
output: > 100 µM

input: Which TGI value is on record for COC12c3ccccc3-c3ccccc3C1[C@H]1C(=O)OC(=O)[C@H]12 (some centres undefined) ?
output: > 10 µM

input: Give its TGI value. Item: CC(C)(C)c1cc(C2COC(c3cc(C(C)(C)C)c(O)c(C(C)(C)C)c3)CO2)cc(C(C)(C)C)c1O (centres undefined)
output: > 100 µM

input: Endpoint output: TGI of Cc1cc2c(c(C(=O)O)c1C)-c1cccc(F)c1C2=O . Value?
output: > 100 µM

---

system: NCI-H226 lung; experiment: NCI tumour cell line growth inhibition, 48 h; in the data active means GI50 below about 0.43 µM; inactive means the rest
Outcomes you can answer with include only these: active, inactive

compound	class-assignment
Cc1nc2ccccc2c(/C=C/c2ccc(Br)cc2)c1C(=O)/C=C/c1ccccc1	inactive
CN(CCCCCl)P(=O)(OCCS(=O)(=O)CC(NC(=O)CCC(N)C(=O)O)C(=O)NC(C(=O)O)c1ccccc1)OCC1OC(n2cc(F)c(=O)[nH]c2=O)CC1O (centres undefined)	inactive
C[C@@H]1O[C@@H](O[C@H]2CC[C@@]3(C)[C@H](CCC4[C@@H]3C(O)C[C@]3(C)[C@@H](c5ccc(=O)oc5)CC[C@]43O)C2)[C@H](O)[C@H](O)[C@H]1O (some centres undefined)	active

input: # fetch the recorded call for C/C1=C\[C@@H](O)C(=O)/C=C/C=C\c2csc(n2)[C@@H](C)NC(=O)C[C@@]2(CC1)S(=O)SC(=O)[C@]2(C)O (some centres undefined) here
output: active

input: Dear all, I need the recorded test outcome for O=C([CH-]C(=O)c1ccccc1)c1ccccc1.O=C([CH-]C(=O)c1ccccc1)c1ccccc1.[OH-].[OH-].[Ti+4] , thank you.
output: inactive

input: Each compound tested received a call. Report the one for CCn1c2ccccc2c2cc(/C=C(/C#N)C(N)=O)ccc21 .
output: active

These data points were gathered from PubChem BioAssay (NCI).
